run.description: Particle size distribution and specific surface area (LS 200, Small Volume Module, Fraunhofer optical model)
Assay type: physicochemical
applied.conditions: calculations from 0.375 μm to 2000 μm
Returns: string. Value is 1 if measured Specific Surf. Area is below 20000 cm^2/mL, and -1 if it is greater than or equal to it.

1. O=C([O-])CCNC(=O)c1ccc(/N=N/c2ccc(O)c(C(=O)[O-])c2)cc1.[Na+].[Na+] [Sample 3] : 1
2. O=C([O-])CCNC(=O)c1ccc(/N=N/c2ccc(O)c(C(=O)[O-])c2)cc1.[Na+].[Na+] [Sample 4] : 1
3. O=C(O)CCNC(=O)c1ccc(/N=N/c2ccc(O)c(C(=O)O)c2)cc1 [Feed Powder Sample A (#35.$01)] : 1
4. O=C([O-])CCNC(=O)c1ccc(/N=N/c2ccc(O)c(C(=O)[O-])c2)cc1.[Na+].[Na+] [Sample 2] : -1

Qu. Please determine if O=C([O-])CCNC(=O)c1ccc(/N=N/c2ccc(O)c(C(=O)[O-])c2)cc1.[Na+].[Na+] [Sample 1] is below 20000 cm^2/mL in terms of Specific Surf. Area.
Ans. 1

----------
run.description: Particle size distribution and specific surface area (LS 200, Small Volume Module, Fraunhofer optical model)
Type: physicochemical
applied.conditions: 100% of volume below this size
Class fulfilled: Particle size, % < 100 at least 50 μm. Class not fulfilled: Particle size, % < 100 below 50 μm.

Qu. Item O=C([O-])CCNC(=O)c1ccc(/N=N/c2ccc(O)c(C(=O)[O-])c2)cc1.[Na+].[Na+] [Sample 1] with Particle size, % < 100 of 50 μm or above?
Ans. not fulfilled

Qu. Item O=C([O-])CCNC(=O)c1ccc(/N=N/c2ccc(O)c(C(=O)[O-])c2)cc1.[Na+].[Na+] [Sample 2] with Particle size, % < 100 of 50 μm or above?
Ans. not fulfilled

Qu. Item O=C([O-])CCNC(=O)c1ccc(/N=N/c2ccc(O)c(C(=O)[O-])c2)cc1.[Na+].[Na+] [Sample 4] with Particle size, % < 100 of 50 μm or above?
Ans. fulfilled

Qu. Item `O=C(O)CCNC(=O)c1ccc(/N=N/c2ccc(O)c(C(=O)O)c2)cc1` with Particle size, % < 100 of 50 μm or above?
Ans. fulfilled

Qu. Item O=C([O-])CCNC(=O)c1ccc(/N=N/c2ccc(O)c(C(=O)[O-])c2)cc1.[Na+].[Na+] [Sample 3] with Particle size, % < 100 of 50 μm or above?
Ans. fulfilled

----------
run.description: Particle size distribution and specific surface area (LS 200, Small Volume Module, Fraunhofer optical model)
Assay type: physicochemical
applied.conditions: Particle Diameter (Lower) 6.158 μm
# Diff. Volume % per record follows
Numeric answer only, unit % assumed.

1. O=C([O-])CCNC(=O)c1ccc(/N=N/c2ccc(O)c(C(=O)[O-])c2)cc1.[Na+].[Na+] [Sample 3] : 25.7

Qu. Give a short answer stating reported Diff. Volume % for O=C([O-])CCNC(=O)c1ccc(/N=N/c2ccc(O)c(C(=O)[O-])c2)cc1.[Na+].[Na+] [Sample 4] .
Ans. 14.1

Qu. Give a short answer stating reported Diff. Volume % for O=C(O)CCNC(=O)c1ccc(/N=N/c2ccc(O)c(C(=O)O)c2)cc1 [Feed Powder Sample C (#53.$02)] .
Ans. 26.7

Qu. Give a short answer stating reported Diff. Volume % for O=C([O-])CCNC(=O)c1ccc(/N=N/c2ccc(O)c(C(=O)[O-])c2)cc1.[Na+].[Na+] [Sample 1] .
Ans. 25.3

Qu. Give a short answer stating reported Diff. Volume % for O=C(O)CCNC(=O)c1ccc(/N=N/c2ccc(O)c(C(=O)O)c2)cc1 [Feed Powder Sample B (#41.$02)] .
Ans. 13.9

Qu. Give a short answer stating reported Diff. Volume % for O=C([O-])CCNC(=O)c1ccc(/N=N/c2ccc(O)c(C(=O)[O-])c2)cc1.[Na+].[Na+] [Sample 2] .
Ans. 24.1

Qu. Give a short answer stating reported Diff. Volume % for O=C(O)CCNC(=O)c1ccc(/N=N/c2ccc(O)c(C(=O)O)c2)cc1 [Feed Powder Sample A (#35.$01)] .
Ans. 25.7

----------
run.description: Particle size distribution and specific surface area (LS 200, Small Volume Module, Fraunhofer optical model)
Type: physicochemical
applied.conditions: Particle Diameter (Lower) 176.9 μm
# Cum. < Volume % per record follows
Answers without a unit are incomplete; give the number and then its unit.

Record excerpt, results attached:
1. O=C(O)CCNC(=O)c1ccc(/N=N/c2ccc(O)c(C(=O)O)c2)cc1 [Feed Powder Sample B (#41.$02)] : 99.3%
2. O=C([O-])CCNC(=O)c1ccc(/N=N/c2ccc(O)c(C(=O)[O-])c2)cc1.[Na+].[Na+] [Sample 1] : 100%
3. O=C([O-])CCNC(=O)c1ccc(/N=N/c2ccc(O)c(C(=O)[O-])c2)cc1.[Na+].[Na+] [Sample 2] : 100%

Now look at this entry.
Qu. Give a short answer stating reported Cum. < Volume % for O=C(O)CCNC(=O)c1ccc(/N=N/c2ccc(O)c(C(=O)O)c2)cc1 [Feed Powder Sample A (#35.$01)] .
Ans. 100%

----------
run.description: Particle size distribution and specific surface area (LS 200, Small Volume Module, Fraunhofer optical model)
Format: physicochemical
applied.conditions: Particle Diameter (Lower) 33.01 μm
# Diff. Volume % per record follows
Answers without a unit are incomplete; give the number and then its unit.

Record excerpt, results attached:
1. O=C(O)CCNC(=O)c1ccc(/N=N/c2ccc(O)c(C(=O)O)c2)cc1 [Feed Powder Sample A (#35.$01)] : 3.32%
2. O=C([O-])CCNC(=O)c1ccc(/N=N/c2ccc(O)c(C(=O)[O-])c2)cc1.[Na+].[Na+] [Sample 2] : 0.23%
3. O=C([O-])CCNC(=O)c1ccc(/N=N/c2ccc(O)c(C(=O)[O-])c2)cc1.[Na+].[Na+] [Sample 4] : 17.2%

Qu. Give a short answer stating reported Diff. Volume % for O=C([O-])CCNC(=O)c1ccc(/N=N/c2ccc(O)c(C(=O)[O-])c2)cc1.[Na+].[Na+] [Sample 3] .
Ans. 0.79%

Qu. Give a short answer stating reported Diff. Volume % for O=C([O-])CCNC(=O)c1ccc(/N=N/c2ccc(O)c(C(=O)[O-])c2)cc1.[Na+].[Na+] [Sample 1] .
Ans. 0.030%

Qu. Give a short answer stating reported Diff. Volume % for O=C(O)CCNC(=O)c1ccc(/N=N/c2ccc(O)c(C(=O)O)c2)cc1 [Feed Powder Sample C (#53.$02)] .
Ans. 1.07%

Qu. Give a short answer stating reported Diff. Volume % for O=C(O)CCNC(=O)c1ccc(/N=N/c2ccc(O)c(C(=O)O)c2)cc1 [Feed Powder Sample B (#41.$02)] .
Ans. 17.0%

----------
# Cum. < Volume % per record follows
run.description: Particle size distribution and specific surface area (LS 200, Small Volume Module, Fraunhofer optical model)
Type: physicochemical
applied.conditions: Particle Diameter (Lower) 101.1 μm
Numeric answer only, unit % assumed.

1) O=C([O-])CCNC(=O)c1ccc(/N=N/c2ccc(O)c(C(=O)[O-])c2)cc1.[Na+].[Na+] [Sample 3] : 100
2) O=C(O)CCNC(=O)c1ccc(/N=N/c2ccc(O)c(C(=O)O)c2)cc1 [Feed Powder Sample A (#35.$01)] : 100
3) O=C([O-])CCNC(=O)c1ccc(/N=N/c2ccc(O)c(C(=O)[O-])c2)cc1.[Na+].[Na+] [Sample 4] : 98.7

Qu. Give a short answer stating reported Cum. < Volume % for O=C(O)CCNC(=O)c1ccc(/N=N/c2ccc(O)c(C(=O)O)c2)cc1 [Feed Powder Sample B (#41.$02)] .
Ans. 96.6

Qu. Give a short answer stating reported Cum. < Volume % for O=C(O)CCNC(=O)c1ccc(/N=N/c2ccc(O)c(C(=O)O)c2)cc1 [Feed Powder Sample C (#53.$02)] .
Ans. 100

Qu. Give a short answer stating reported Cum. < Volume % for O=C([O-])CCNC(=O)c1ccc(/N=N/c2ccc(O)c(C(=O)[O-])c2)cc1.[Na+].[Na+] [Sample 1] .
Ans. 100

Qu. Give a short answer stating reported Cum. < Volume % for O=C([O-])CCNC(=O)c1ccc(/N=N/c2ccc(O)c(C(=O)[O-])c2)cc1.[Na+].[Na+] [Sample 2] .
Ans. 100

----------
run.description: Particle size distribution and specific surface area (LS 200, Small Volume Module, Fraunhofer optical model)
Assay type: physicochemical
applied.conditions: 10% of volume below this size
# Particle size, % < 10 per record follows
Numeric answer only, unit μm assumed.

1. O=C([O-])CCNC(=O)c1ccc(/N=N/c2ccc(O)c(C(=O)[O-])c2)cc1.[Na+].[Na+] [Sample 4] : 3.851
2. O=C([O-])CCNC(=O)c1ccc(/N=N/c2ccc(O)c(C(=O)[O-])c2)cc1.[Na+].[Na+] [Sample 3] : 1.498
3. O=C([O-])CCNC(=O)c1ccc(/N=N/c2ccc(O)c(C(=O)[O-])c2)cc1.[Na+].[Na+] [Sample 1] : 1.266
4. O=C([O-])CCNC(=O)c1ccc(/N=N/c2ccc(O)c(C(=O)[O-])c2)cc1.[Na+].[Na+] [Sample 2] : 1.192

Qu. Give a short answer stating reported Particle size, % < 10 for `O=C(O)CCNC(=O)c1ccc(/N=N/c2ccc(O)c(C(=O)O)c2)cc1` .
Ans. 1.899
